# testedOn: human Peroxisome Proliferator-activated Receptor delta (PPARd), PPARD (gene 5467) (UniProt Q03181)
# Sequence (Q03181 whole entry, looked up): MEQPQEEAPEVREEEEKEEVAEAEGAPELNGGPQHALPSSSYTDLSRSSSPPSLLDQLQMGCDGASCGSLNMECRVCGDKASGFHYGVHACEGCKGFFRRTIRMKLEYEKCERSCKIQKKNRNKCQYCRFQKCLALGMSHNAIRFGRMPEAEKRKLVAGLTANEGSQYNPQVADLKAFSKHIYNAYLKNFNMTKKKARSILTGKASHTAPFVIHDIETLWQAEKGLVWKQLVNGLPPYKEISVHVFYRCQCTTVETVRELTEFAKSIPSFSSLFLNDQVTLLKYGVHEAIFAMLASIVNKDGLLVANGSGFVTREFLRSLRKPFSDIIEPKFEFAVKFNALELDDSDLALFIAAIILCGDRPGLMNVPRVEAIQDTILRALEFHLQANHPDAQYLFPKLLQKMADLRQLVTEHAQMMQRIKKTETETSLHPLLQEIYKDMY
# protocolSummary: ATG_PPARd_TRANS: Attagene TRANS-FACTORIAL HepG2 Assay for human Peroxisome Proliferator-activated Receptor delta (PPARd) (AID 2283002)
Records with an inconclusive call do not appear. Active and inactive are the calls of the source. How the source made its calls: active means hit-call score of the fitted dose curve at least 0.9, where 1 is the maximum; inconclusive means response in the unintended direction; inactive means score below 0.9.
Outcomes: active, inactive

| molecule | labelValue |
| --- | --- |
| Cc1occc(=O)c1OC(=O)C(C)C | inactive |
| CCCCCCC(O)CCCCCCCCCCC(=O)O (stereo not drawn) | active |
| [O-]n1ccccc1=S.[O-]n1ccccc1=S.[Zn+2] | inactive |
| CCCC(C)=O | inactive |
| Cc1ncc[nH]1 | inactive |
| CCCC(O)C(O)CO (stereo not drawn) | inactive |
| COC(C)(C)CCO | inactive |
| C=CCCC(=O)/C=C/C1C(C)=CCCC1(C)C (stereo not drawn) | inactive |
